IC50 values recorded for MMP-9 (Homo sapiens)
Give the number; nM is assumed, so skip it.

// query Any idea what its IC50 is? The compound is Cc1ccc(-c2ccc(S(=O)(=O)N[C@@H]3CC=CCN(O)C3=O)s2)cc1
// result 8.6

// query Can you check CS(=O)(=O)N(Cc1cccn(O)c1=O)c1ccc(Oc2ccc(C(F)(F)F)cc2)cc1 next?
// result 233

// query Can you check Cc1ccc(Oc2ccc(N(Cc3cc(Br)cn(O)c3=O)S(C)(=O)=O)cc2)cc1 next?
// result 116

// query Can you check CN(c1cccn(O)c1=O)S(=O)(=O)c1ccc(Oc2ccc(OC(F)(F)F)cc2)cc1 next?
// result 1.85

// query Can you check O=c1c(N(CCN2CCOCC2)S(=O)(=O)c2ccc(Oc3ccc(Cl)cc3)cc2)cccn1O next?
// result 4.2

// query Can you check CC1CN(CC2=CC[C@@H](NS(=O)(=O)c3ccc(Oc4ccc(Cl)cc4)cc3)C(=O)N(O)C2)CC(C)O1 (some centres unmarked) next?
// result 0.89

// query Can you check CS(=O)(=O)N(Cc1cccn(O)c1=O)c1ccc(Oc2ccc(Cl)cc2)cc1 next?
// result 126

// query Can you check O=c1c(O)cccn1CS(=O)(=O)c1ccc(Br)s1 next?
// result 668

// query Can you check O=C1[C@H](NS(=O)(=O)c2ccc(Oc3ccccn3)cc2)CC=CCN1O next?
// result 22.9

// query Can you check Cc1ccc(Oc2ccc(S(=O)(=O)Nc3cccn(O)c3=O)cc2)cc1 next?
// result 64.6

// query Can you check O=C1[C@H](NS(=O)(=O)c2ccc(Oc3ccc(C(F)(F)F)cc3)cc2)CCCN1O next?
// result 743
